B1: Azoarcus group I ribozyme (parent)
chain: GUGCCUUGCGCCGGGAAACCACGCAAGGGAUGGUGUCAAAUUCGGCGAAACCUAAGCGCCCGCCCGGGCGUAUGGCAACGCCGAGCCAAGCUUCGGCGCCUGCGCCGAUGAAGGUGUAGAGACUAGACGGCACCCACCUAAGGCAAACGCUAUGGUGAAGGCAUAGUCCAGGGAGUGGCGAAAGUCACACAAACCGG

Variants of: B1
Test: reverse-splicing fitness (ratio to wild type); higher = more active; in vitro selection; Mg2+ level not given
Measured Property: reverse-splicing fitness
Please reply with the number alone, leaving off any unit.

Look up reverse-splicing fitness: C82G A111G A120G C150G C169G U176C
0.00628

Input A111G A145G C150A C169A U176A
0.0183

Input A111U A120G A145U C150G U176G
0.00309

Input C82G A111G A120C A145U C150G C169U U176C
0.0131

Input C82A A111U A120U A145U C169A U176C
0.00197

Input C82U A111C A145U C150U C169A
0.00889

Input C82U A120G A145C C150U C169A U176C
0.00527

Input C82G A111G A120U A145U C150A
0.00764

Input C82A A111U A120C A145C C150G U176A
0.00531

Input A111C A120G C150G U176G
0.00348

Input A111U A120U A145U C169G U176C
0.00666

Input C82G A111G A120C A145U C169A U176G
0.00508

Input C82U A111C A120U A145G C150U U176G
0.00287

Input C82U A111C A120G A145U C150A C169A U176A
0.0102

Input C82U A120U C150G C169A U176C
0.003

Input C82A A120G A145C C150G C169G
0.00899

Input C150U C169G U176G
0.0074

Input C82G A111G A120U C150G C169U U176G
0.00278

Input C82A A111U A120U A145U C150G C169U
0.00332

Input C82U A111G A120C A145C C150G U176C
0.00742

Input C82A A111G A145C C150G C169U U176A
0.00799

Input C82A A120G C150A C169G U176A
0.0195
